molecular target: HLA-A*0202 (human); assay: competition with 125I probe peptide on purified HLA, gel filtration; details: remark: other sources report otherwise
pIC50: −log10 of the molar value.
Threshold rule: pIC50 greater than or equal to 7 is Satisfied; below that, Not satisfied.

INSERT INTO assay_data (binder, classlabel) VALUES
  ('GVSIWNPIV [Peptide 60.0207 … (PAP.128.V9)]', 'Not satisfied'),
  ('GLHGQDLFGI [Peptide 1166.11 … (PAP.196)]', 'Satisfied'),
  ('ALFPPEGVSV [Peptide 1419.61 … (PAP.122.V10)]', 'Satisfied'),
  ('PLLLWQPIPV [Peptide 63.0042 … (PAP.134.L2)]', 'Satisfied');
